# System: Rattus norvegicus
# protocolNotes: Neuroleptic activity in ip dosed Long-Evans rat assessed as increase in escape failure
# Format: functional
ED50 vs 20 mg/kg: less than gives True; not less than gives False.

Known results for compounds:
>  <compound>
CCCC(C)C1(CC)C(=O)N=C([O-])NC1=O.[Na+] (stereo not given) [PENTOBARBITAL SODIUM]

>  <label>
False

$$$$
>  <compound>
O=C(CCCN1CCC2(CC1)OC(c1ccccc1)c1ccccc12)c1ccc(F)cc1 (stereo not given)

>  <label>
False

$$$$
>  <compound>
CSc1ccc2c(c1)N(CCC1CCCCN1C)c1ccccc1S2 (stereo not given)

>  <label>
False

$$$$
>  <compound>
O=C(CCCN1CCC2(CC1)OC(c1ccccc1)c1ccc(F)cc12)c1ccc(F)cc1 (stereo not given)

>  <label>
False

$$$$
>  <compound>
O=C(CCCN1CCC(O)(c2ccc(Cl)cc2)CC1)c1ccc(F)cc1

>  <label>
True

$$$$
>  <compound>
COc1ccc2c(c1)C(c1ccccc1)OC21CCN(CCCC(=O)c2ccc(F)cc2)CC1 (stereo not given)

>  <label>
False

$$$$
>  <compound>
CN(C)CCCN1c2ccccc2Sc2ccc(Cl)cc21

>  <label>
True

$$$$
>  <compound>
COc1ccc(C2OC3(CCN(CCCC(=O)c4ccc(F)cc4)CC3)c3ccccc32)cc1 (stereo not given)

>  <label>
False

$$$$
>  <compound>
O=C(CCCN1CCC2(CC1)OC(c1ccc(F)cc1)c1ccc(F)cc12)c1ccc(F)cc1 (stereo not given)

>  <label>
False

$$$$

Next, consider the following compound.
Exercise: Does this compound meet the criterion ED50 < 20 mg/kg? CN1C(=O)CN=C(c2ccccc2)c2cc(Cl)ccc21
Key: False
